Test system: windgrass (Apera spica-venti)
Measurement Description: Test B postemergence plant response
Assay type: in vivo
Conditions: 31 g ai/ha, postemergence; scale 0 to 100, 0 is no effect, 100 is complete control
Assignment: determine reported Plant response rating, Windgrass for the given molecules.
Simply state the number, no unit and no words.

Query: State Plant response rating, Windgrass on windgrass (Apera spica-venti). Entry: Cn1c(-c2ccccc2)ncc(C(=O)C2=C(O)CCCC2=O)c1=O [Compound 55]
Result: 0

Query: State Plant response rating, Windgrass on windgrass (Apera spica-venti). Entry: CCCc1ncc(C(=O)C2=C(O)CCCC2=O)c(=O)n1CC1CCCO1 (stereo not drawn) [Compound 74]
Result: 5

Query: State Plant response rating, Windgrass on windgrass (Apera spica-venti). Entry: O=C1CCCC(O)=C1C(=O)c1cnc(-c2cccc(Cl)c2)n(-c2ccc(Cl)cc2)c1=O [Compound 64]
Result: 70

Query: State Plant response rating, Windgrass on windgrass (Apera spica-venti). Entry: COCCn1c(-c2ccccc2)ncc(C(=O)C2=C(O)CCCC2=O)c1=O [Compound 85]
Result: 40

Query: State Plant response rating, Windgrass on windgrass (Apera spica-venti). Entry: Cc1ccc(-c2ncc(C(=O)C3=C(O)CCCC3=O)c(=O)n2-c2ccccc2)cc1 [Compound 80]
Result: 50

Query: State Plant response rating, Windgrass on windgrass (Apera spica-venti). Entry: CC(C)CC(=O)OC1=C(C(=O)c2cnc(-c3ccccc3)n(-c3ccccc3)c2=O)C(=O)CCC1 [Compound 83]
Result: 5
